Molecular target: CSK(h) (Homo sapiens, UniProt P41240)
Sequence (P41240 whole entry): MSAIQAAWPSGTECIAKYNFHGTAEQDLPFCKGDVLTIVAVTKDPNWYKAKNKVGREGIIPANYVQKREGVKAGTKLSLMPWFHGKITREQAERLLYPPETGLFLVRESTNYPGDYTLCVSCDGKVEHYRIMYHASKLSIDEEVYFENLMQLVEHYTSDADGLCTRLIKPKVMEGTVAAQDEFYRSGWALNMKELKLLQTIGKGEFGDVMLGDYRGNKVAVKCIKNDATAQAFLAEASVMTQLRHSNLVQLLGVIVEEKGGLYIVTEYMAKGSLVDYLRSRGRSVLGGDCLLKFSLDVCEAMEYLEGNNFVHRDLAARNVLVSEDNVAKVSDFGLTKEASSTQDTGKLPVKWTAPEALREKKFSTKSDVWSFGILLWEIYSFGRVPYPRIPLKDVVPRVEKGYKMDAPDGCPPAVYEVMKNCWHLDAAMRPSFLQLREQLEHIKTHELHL
Test: Kinase Profiling Assay
Type: biochemical
Conditions: 100 μM
Assay Readout: % activity (%)
Value expressed in %; do not type the unit.

Problem: Reported % activity for CSK(h) (Homo sapiens, UniProt P41240), given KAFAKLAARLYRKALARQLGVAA [MMI-0400] ?
Result: 16

Problem: Reported % activity for CSK(h) (Homo sapiens, UniProt P41240), given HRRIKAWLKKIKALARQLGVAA [MMI-0500] ?
Result: 2

Problem: Reported % activity for CSK(h) (Homo sapiens, UniProt P41240), given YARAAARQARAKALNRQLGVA [MMI-0200] ?
Result: 33

Problem: Reported % activity for CSK(h) (Homo sapiens, UniProt P41240), given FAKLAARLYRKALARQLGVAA [MMI-0300] ?
Result: 49

###

Target: PKCβII(h) (Homo sapiens, UniProt P05771)
Sequence (P05771 1-673 isoform P05771-2): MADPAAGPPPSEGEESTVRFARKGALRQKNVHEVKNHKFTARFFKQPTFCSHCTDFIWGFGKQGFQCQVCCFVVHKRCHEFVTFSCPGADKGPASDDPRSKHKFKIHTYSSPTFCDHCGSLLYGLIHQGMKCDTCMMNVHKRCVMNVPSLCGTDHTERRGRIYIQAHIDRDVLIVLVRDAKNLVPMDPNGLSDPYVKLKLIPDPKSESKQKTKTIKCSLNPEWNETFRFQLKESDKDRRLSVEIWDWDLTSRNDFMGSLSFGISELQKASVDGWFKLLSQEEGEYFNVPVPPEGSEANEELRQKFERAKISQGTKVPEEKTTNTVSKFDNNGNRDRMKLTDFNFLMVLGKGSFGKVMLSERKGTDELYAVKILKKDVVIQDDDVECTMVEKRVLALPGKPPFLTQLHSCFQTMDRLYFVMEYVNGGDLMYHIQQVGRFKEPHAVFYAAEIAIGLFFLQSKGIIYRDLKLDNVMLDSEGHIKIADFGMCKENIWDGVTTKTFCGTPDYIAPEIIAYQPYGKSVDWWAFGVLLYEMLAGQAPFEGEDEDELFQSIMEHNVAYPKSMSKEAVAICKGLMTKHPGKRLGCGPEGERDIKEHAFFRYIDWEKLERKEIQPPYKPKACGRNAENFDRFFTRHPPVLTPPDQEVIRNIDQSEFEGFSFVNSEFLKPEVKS
Assay: Kinase Profiling Assay
Assay type: biochemical
Details: 100 μM
Assay Readout: % activity (%)
Value expressed in %; do not type the unit.

Problem: Requested read-out: % activity. Entry: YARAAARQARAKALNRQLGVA [MMI-0200]
Result: 100

Problem: Requested read-out: % activity. Entry: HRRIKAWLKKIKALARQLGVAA [MMI-0500]
Result: 3

Problem: Requested read-out: % activity. Entry: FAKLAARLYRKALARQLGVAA [MMI-0300]
Result: 82

Problem: Requested read-out: % activity. Entry: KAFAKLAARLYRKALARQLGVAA [MMI-0400]
Result: 75

###

Target: CDK7/cyclinH/MAT1(h) (Homo sapiens, UniProt P50613)
Sequence (P50613 whole entry): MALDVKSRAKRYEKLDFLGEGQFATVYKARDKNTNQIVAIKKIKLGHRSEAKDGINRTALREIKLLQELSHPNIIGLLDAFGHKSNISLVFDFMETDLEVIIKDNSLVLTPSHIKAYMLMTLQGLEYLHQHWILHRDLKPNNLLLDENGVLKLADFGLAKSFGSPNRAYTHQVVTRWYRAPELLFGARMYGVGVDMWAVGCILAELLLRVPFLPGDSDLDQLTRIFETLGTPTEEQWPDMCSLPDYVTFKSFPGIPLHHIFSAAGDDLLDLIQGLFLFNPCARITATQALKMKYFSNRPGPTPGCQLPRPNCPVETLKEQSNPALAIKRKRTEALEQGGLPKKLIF
Sequence (P51946 whole entry partner): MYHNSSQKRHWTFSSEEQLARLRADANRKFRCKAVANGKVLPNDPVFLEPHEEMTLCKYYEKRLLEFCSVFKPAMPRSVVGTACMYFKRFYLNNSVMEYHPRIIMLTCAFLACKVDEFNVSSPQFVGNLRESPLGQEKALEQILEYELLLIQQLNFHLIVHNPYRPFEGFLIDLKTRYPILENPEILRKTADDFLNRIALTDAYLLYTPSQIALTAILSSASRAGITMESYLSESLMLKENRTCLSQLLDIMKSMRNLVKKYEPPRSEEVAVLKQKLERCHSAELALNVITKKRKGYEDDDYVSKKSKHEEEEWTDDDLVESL
Sequence (P51948 whole entry partner): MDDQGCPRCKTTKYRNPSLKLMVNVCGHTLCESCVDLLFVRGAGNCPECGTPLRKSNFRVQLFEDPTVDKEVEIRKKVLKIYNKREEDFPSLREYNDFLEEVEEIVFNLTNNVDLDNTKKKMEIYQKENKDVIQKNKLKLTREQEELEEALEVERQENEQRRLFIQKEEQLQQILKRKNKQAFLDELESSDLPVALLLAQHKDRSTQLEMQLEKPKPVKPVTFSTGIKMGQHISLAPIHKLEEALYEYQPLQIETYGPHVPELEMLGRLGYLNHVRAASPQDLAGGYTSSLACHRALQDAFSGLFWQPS
Assay: Kinase Profiling Assay
Assay type: biochemical
Conditions: 100 μM
Assay Readout: % activity (%)
Value expressed in %; do not type the unit.

Problem: Requested read-out: % activity. Entry: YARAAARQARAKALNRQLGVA [MMI-0200]
Result: 67

Problem: Requested read-out: % activity. Entry: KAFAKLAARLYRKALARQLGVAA [MMI-0400]
Result: 47

Problem: Requested read-out: % activity. Entry: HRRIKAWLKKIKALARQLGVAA [MMI-0500]
Result: 15

Problem: Requested read-out: % activity. Entry: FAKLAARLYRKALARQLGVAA [MMI-0300]
Result: 65

###

Target: Itk(h) (Homo sapiens, UniProt Q08881)
Sequence (Q08881 1-620): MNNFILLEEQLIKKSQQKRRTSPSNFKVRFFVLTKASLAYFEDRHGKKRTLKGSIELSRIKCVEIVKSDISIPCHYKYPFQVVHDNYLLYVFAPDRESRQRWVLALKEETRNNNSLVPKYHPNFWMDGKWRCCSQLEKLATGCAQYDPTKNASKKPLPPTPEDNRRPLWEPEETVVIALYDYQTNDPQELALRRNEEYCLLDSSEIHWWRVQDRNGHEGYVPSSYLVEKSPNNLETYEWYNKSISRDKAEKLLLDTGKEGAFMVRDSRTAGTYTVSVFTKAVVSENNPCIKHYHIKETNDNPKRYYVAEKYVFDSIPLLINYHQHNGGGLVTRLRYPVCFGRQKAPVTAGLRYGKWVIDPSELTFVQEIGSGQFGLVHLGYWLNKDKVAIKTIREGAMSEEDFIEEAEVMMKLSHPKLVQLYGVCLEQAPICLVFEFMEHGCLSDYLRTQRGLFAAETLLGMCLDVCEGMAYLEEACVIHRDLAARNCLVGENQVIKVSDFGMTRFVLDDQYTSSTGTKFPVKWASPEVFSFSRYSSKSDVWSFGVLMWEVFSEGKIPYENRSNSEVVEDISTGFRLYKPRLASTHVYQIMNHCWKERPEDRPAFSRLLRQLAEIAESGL
Test: Kinase Profiling Assay
Assay type: biochemical
Details: 100 μM
Assay Readout: % activity (%)
Value expressed in %; do not type the unit.

Problem: Requested read-out: % activity. Entry: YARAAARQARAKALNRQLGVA [MMI-0200]
Result: 98

Problem: Requested read-out: % activity. Entry: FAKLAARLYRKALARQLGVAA [MMI-0300]
Result: 77

Problem: Requested read-out: % activity. Entry: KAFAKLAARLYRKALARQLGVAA [MMI-0400]
Result: 63

Problem: Requested read-out: % activity. Entry: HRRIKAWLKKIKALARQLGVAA [MMI-0500]
Result: 7

###

Answer each item with its documented % activity.
Target: AMPKα1(h) (Homo sapiens, UniProt Q13131)
Sequence (Q13131 whole entry): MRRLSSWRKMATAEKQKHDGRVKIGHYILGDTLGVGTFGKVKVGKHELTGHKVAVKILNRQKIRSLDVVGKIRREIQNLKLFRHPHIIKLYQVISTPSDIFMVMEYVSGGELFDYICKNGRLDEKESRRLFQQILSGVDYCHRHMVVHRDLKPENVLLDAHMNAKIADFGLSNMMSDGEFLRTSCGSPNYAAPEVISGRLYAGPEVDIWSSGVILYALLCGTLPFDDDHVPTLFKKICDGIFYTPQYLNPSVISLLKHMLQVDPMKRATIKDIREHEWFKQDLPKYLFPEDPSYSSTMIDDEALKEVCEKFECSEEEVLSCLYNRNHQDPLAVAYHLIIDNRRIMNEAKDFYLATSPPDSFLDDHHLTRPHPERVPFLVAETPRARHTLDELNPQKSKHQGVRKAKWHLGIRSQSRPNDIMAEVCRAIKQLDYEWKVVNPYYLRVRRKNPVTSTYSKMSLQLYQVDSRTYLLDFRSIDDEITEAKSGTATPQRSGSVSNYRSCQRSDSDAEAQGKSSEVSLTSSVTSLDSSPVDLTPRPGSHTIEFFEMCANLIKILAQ
Sequence (Q9Y478 whole entry partner): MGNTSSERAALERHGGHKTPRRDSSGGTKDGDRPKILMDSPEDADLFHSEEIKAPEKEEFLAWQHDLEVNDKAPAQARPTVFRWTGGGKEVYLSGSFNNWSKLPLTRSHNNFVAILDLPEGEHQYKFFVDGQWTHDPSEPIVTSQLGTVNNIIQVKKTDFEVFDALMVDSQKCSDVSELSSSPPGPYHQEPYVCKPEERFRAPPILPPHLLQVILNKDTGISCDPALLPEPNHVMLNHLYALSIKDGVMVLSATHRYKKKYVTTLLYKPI
Sequence (P54619 whole entry partner): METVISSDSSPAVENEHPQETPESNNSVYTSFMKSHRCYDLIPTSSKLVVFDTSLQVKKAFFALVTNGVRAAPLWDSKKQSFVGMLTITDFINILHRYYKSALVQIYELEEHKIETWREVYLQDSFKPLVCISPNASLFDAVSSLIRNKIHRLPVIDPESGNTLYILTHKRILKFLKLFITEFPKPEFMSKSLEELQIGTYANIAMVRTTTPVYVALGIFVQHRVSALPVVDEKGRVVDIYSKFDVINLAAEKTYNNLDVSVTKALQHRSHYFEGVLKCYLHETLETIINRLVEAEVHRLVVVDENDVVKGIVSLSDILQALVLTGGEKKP
Assay: Kinase Profiling Assay
Assay type: biochemical
Details: 100 μM
Value expressed in %; do not type the unit.

Problem: Reported % activity for AMPKα1(h) (Homo sapiens, UniProt Q13131), given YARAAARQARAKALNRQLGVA [MMI-0200] ?
Result: 108

Problem: Reported % activity for AMPKα1(h) (Homo sapiens, UniProt Q13131), given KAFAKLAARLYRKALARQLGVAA [MMI-0400] ?
Result: 87

Problem: Reported % activity for AMPKα1(h) (Homo sapiens, UniProt Q13131), given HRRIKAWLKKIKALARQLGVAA [MMI-0500] ?
Result: 35

Problem: Reported % activity for AMPKα1(h) (Homo sapiens, UniProt Q13131), given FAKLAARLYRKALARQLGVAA [MMI-0300] ?
Result: 71

###

Target: TSSK2(h) (Homo sapiens, UniProt Q96PF2)
Sequence (Q96PF2 1-358): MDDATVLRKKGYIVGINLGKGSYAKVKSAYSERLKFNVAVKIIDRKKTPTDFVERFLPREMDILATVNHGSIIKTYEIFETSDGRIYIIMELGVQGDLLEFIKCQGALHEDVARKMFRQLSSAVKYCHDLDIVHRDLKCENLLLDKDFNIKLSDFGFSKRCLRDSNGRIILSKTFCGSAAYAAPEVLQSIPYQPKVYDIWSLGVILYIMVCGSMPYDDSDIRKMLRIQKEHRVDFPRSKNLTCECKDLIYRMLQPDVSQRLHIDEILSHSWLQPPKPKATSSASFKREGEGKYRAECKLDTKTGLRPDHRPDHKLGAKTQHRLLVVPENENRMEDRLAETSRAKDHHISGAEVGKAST
Test: Kinase Profiling Assay
Assay type: biochemical
Conditions: 100 μM
Assay Readout: % activity (%)
Value expressed in %; do not type the unit.

Problem: Reported % activity for TSSK2(h) (Homo sapiens, UniProt Q96PF2), given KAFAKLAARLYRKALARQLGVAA [MMI-0400] ?
Result: 94

Problem: Reported % activity for TSSK2(h) (Homo sapiens, UniProt Q96PF2), given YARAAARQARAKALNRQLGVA [MMI-0200] ?
Result: 91

Problem: Reported % activity for TSSK2(h) (Homo sapiens, UniProt Q96PF2), given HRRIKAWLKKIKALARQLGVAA [MMI-0500] ?
Result: 92

Problem: Reported % activity for TSSK2(h) (Homo sapiens, UniProt Q96PF2), given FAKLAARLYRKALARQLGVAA [MMI-0300] ?
Result: 98

###

Target: CLK3(h) (Homo sapiens, UniProt P49761)
Sequence (P49761 whole entry): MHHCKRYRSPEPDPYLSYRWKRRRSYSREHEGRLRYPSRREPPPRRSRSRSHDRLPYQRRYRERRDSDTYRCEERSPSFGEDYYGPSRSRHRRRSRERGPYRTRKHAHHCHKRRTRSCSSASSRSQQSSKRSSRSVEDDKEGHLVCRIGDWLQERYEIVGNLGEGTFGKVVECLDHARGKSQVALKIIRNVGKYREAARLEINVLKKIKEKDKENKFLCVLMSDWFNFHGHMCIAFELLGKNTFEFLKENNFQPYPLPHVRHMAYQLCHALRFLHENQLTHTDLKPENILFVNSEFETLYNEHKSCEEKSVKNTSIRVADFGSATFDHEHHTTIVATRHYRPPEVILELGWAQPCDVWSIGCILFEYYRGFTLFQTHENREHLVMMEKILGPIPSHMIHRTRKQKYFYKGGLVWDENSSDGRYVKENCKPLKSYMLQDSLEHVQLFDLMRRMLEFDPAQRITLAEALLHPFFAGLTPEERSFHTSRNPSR
Experiment: Kinase Profiling Assay
Type: biochemical
Settings: 100 μM
Answer each item with its documented % activity.
Value expressed in %; do not type the unit.

Problem: Requested read-out: % activity. Entry: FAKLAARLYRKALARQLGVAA [MMI-0300]
Result: 61

Problem: Requested read-out: % activity. Entry: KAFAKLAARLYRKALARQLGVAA [MMI-0400]
Result: 84

Problem: Requested read-out: % activity. Entry: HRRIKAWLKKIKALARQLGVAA [MMI-0500]
Result: 76

Problem: Requested read-out: % activity. Entry: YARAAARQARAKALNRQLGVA [MMI-0200]
Result: 76

###

Molecular target: CaMKI(h) (Homo sapiens)
Sequence (Q14012 whole entry): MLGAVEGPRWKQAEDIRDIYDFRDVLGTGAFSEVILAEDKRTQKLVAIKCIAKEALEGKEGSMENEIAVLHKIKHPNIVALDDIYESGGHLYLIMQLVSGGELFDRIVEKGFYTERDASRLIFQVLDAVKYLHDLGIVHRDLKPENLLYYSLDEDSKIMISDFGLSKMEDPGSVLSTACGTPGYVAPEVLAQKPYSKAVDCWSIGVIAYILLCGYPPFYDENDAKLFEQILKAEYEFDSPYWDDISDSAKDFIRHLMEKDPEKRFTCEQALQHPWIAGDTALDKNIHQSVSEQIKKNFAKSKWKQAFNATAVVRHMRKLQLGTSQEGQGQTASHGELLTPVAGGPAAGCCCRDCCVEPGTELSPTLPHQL
Experiment: Kinase Profiling Assay
Format: biochemical
Settings: 100 μM
Assay Readout: % activity
Entry format: amount then unit.

Problem: Requested read-out: % activity. Entry: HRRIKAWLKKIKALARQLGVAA [MMI-0500]
Result: −1%

Problem: Requested read-out: % activity. Entry: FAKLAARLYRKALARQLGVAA [MMI-0300]
Result: 1%

Problem: Requested read-out: % activity. Entry: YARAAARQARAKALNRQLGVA [MMI-0200]
Result: 21%

Problem: Requested read-out: % activity. Entry: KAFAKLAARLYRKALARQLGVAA [MMI-0400]
Result: 0%

###

Answer each item with its documented % activity.
Biological target: PKCβI(h) (Homo sapiens, UniProt P05771)
Sequence (P05771 whole entry): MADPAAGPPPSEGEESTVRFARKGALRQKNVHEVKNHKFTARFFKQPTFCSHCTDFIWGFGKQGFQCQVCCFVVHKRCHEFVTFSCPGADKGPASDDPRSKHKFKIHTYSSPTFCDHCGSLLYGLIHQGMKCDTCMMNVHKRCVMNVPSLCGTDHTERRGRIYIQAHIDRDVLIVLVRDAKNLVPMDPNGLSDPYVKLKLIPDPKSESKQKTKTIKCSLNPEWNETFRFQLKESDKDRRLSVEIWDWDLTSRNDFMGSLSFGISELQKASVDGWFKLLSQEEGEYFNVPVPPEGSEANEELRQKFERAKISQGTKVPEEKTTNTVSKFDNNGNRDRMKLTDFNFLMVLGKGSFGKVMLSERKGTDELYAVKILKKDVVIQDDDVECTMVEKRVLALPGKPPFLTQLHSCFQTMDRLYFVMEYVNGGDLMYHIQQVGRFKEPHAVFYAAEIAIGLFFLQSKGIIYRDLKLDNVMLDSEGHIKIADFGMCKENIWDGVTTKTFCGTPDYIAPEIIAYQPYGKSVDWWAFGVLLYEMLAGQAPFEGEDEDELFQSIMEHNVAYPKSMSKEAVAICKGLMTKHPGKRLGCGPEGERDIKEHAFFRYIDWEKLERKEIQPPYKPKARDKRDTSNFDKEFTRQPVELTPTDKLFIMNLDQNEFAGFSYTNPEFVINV
Test: Kinase Profiling Assay
Type: biochemical
Details: 100 μM
Value expressed in %; do not type the unit.

Problem: Requested read-out: % activity. Entry: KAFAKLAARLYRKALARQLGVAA [MMI-0400]
Result: 78

Problem: Requested read-out: % activity. Entry: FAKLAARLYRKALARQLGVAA [MMI-0300]
Result: 78

Problem: Requested read-out: % activity. Entry: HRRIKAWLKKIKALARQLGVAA [MMI-0500]
Result: 1

Problem: Requested read-out: % activity. Entry: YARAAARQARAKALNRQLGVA [MMI-0200]
Result: 98
